target: IRAP (Homo sapiens, UniProt Q9UIQ6); construct: The screen was performed with the soluble truncated IRAP enzyme; made in house; assay: Deselection fluorescence IRAP assay with 10 µM zinc; assay type: biochemical; conditions: 10 µM ZnSO4 in assay buffer
Sequence (Q9UIQ6 155-1025 limits assumed): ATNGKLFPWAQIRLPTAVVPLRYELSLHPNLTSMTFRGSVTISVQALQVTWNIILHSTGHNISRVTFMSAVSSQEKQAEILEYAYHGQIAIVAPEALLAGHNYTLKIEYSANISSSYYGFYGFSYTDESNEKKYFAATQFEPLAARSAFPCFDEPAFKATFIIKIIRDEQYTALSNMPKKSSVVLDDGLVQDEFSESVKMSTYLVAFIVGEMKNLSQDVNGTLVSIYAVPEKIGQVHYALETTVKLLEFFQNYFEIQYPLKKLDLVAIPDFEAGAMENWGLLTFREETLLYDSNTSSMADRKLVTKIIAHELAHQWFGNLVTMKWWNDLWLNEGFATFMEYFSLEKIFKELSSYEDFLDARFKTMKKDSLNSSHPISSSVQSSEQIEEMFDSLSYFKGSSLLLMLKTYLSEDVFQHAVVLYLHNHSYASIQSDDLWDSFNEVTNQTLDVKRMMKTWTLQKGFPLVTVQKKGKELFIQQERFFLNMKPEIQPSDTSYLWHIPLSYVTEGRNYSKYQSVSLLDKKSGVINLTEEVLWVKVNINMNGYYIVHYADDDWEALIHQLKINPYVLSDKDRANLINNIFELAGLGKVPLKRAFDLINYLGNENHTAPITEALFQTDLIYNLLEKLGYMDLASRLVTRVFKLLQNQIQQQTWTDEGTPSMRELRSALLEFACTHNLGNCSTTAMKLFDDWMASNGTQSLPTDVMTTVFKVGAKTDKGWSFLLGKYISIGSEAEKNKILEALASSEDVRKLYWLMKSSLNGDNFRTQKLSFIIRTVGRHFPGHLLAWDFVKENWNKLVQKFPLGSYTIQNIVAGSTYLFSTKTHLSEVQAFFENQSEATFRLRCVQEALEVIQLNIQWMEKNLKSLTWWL

{"MOLECULE": "Cc1ccc(-c2nc(C3CCCN3C(=O)NCc3ccccc3)n3ccccc23)cc1 (racemic) [QHL36]", "Fluorescence + Zn pIC50": 5.31}
{"MOLECULE": "O=C(N1CCCC1)C1(CNS(=O)(=O)c2cccc3ccccc23)CC12CCCCC2 (centres unmarked) [QHL37]", "Fluorescence + Zn pIC50": 5.36}
{"MOLECULE": "Nc1nc2cc(C(=O)O)ccc2n1Cc1cc(F)cc(F)c1 [QHL34]", "Fluorescence + Zn pIC50": 5.39}
{"MOLECULE": "Fc1ccc(F)c(Cn2ccc3ncccc32)c1Cl [QHL31]", "Fluorescence + Zn pIC50": 5.38}
{"MOLECULE": "COc1cc(CN2C(Cc3ccc(S(C)(=O)=O)cc3)CCC2c2cccnc2)cc(OC)c1 (centres unmarked) [QHL35]", "Fluorescence + Zn pIC50": 5.34}

* * *

target: IRAP (Homo sapiens, UniProt Q9UIQ6); construct: The screen was performed with the soluble truncated IRAP enzyme; made in house; assay: Thermal shift (TSA) IRAP assay; format: binding; settings: screening hits at 30 µM, 1% DMSO
Please note: yes applies when TSA (∆°C), thermal shift of IRAP is 0.4 °C or greater, and no applies otherwise.

{"COMPOUND": "c1scc2c(N3CCCCCC3)nc(N3CCC3)nc12", "ASSIGNED CATEGORY": "yes"}
{"COMPOUND": "COCCN1CCc2cnc(NCc3ccc(S(N)(=O)=O)cc3)cc21", "ASSIGNED CATEGORY": "no"}
{"COMPOUND": "CCn1c(=O)n(CC(=O)N(C)CCc2ccc(O)c3[nH]c(=O)sc23)c2ccccc21", "ASSIGNED CATEGORY": "yes"}
{"COMPOUND": "CCCCc1nc2ccn(Cc3cccc(C#N)c3)c(=O)c2n1Cc1cccc(C#N)c1", "ASSIGNED CATEGORY": "yes"}
{"COMPOUND": "c1ccn(CCCSc2nnc3ccc(N4CCCC4)nn23)c1", "ASSIGNED CATEGORY": "yes"}
{"COMPOUND": "Nc1nc2cc(C(=O)O)ccc2n1Cc1cc(F)cc(F)c1", "ASSIGNED CATEGORY": "no"}
{"COMPOUND": "Cc1cc2nc(N)n(Cc3ccccc3)c2cc1C", "ASSIGNED CATEGORY": "yes"}
{"COMPOUND": "COc1cc(CN2C(Cc3ccc(S(C)(=O)=O)cc3)CCC2c2cccnc2)cc(OC)c1 (stereo not shown)", "ASSIGNED CATEGORY": "no"}
{"COMPOUND": "NC(=O)CCc1ccc2c(c1)nc(N)n2Cc1ccc(-c2ccccc2)cc1", "ASSIGNED CATEGORY": "yes"}
{"COMPOUND": "O=C(N1CCCC1)C1(CNS(=O)(=O)c2cccc3ccccc23)CC12CCCCC2 (stereo not shown)", "ASSIGNED CATEGORY": "no"}

* * *

biological target: IRAP (Homo sapiens, UniProt Q9UIQ6); construct: The screen was performed with the soluble truncated IRAP enzyme; made in house; test: Primary fluorescence IRAP assay (L-Leucine-7-amido-4-methylcoumarin cleavage); type: biochemical; settings: 8 µl end volume, 60 min; read-out: EC50 (best-fit)

{"COMPOUND": "O=S(=O)(Nc1cccc(-c2nnn[nH]2)c1)c1cc(Cl)c(Cl)cc1Cl [I, reference compound]", "UNIT OF MEASURE": "µM", "EC50": 35.6}

* * *

target: IRAP (Homo sapiens, UniProt Q9UIQ6); construct: The screen was performed with the soluble truncated IRAP enzyme; made in house; test: Orthogonal absorbance IRAP assay (L-Leucine para-nitroanilide cleavage); type: biochemical; conditions: 1 mM L-Leucine p-Nitroanilide, 120 min RT; read-out: Absorbance pIC50 (converted)
Collected log10 of IC50 values appear next to each entry.
ENDPOINT LABEL: log10 of IC50 (log10 of the value in µM)

{"COMPOUND": "CC(C)C(CS(=O)(=O)N(Cc1cc2ccccc2o1)C(C)C)C(=O)NO (stereo not drawn) [QHL3]", "log10 of IC50": -0.15}
{"COMPOUND": "O=C(C1CCCCC1)N1CCC[C@@H]1c1cc(-c2cccnc2)on1 [QHL27]", "log10 of IC50": 1.03}
{"COMPOUND": "CC(C)CC(C(=O)NO)S(=O)(=O)N1CCN(c2ccc(F)cc2)CC1 (stereo not drawn) [QHL24]", "log10 of IC50": 0.48}
{"COMPOUND": "O=C(NO)C(CS(=O)(=O)N1CCC(c2ccc(F)cc2Cl)CC1)C1CCOCC1 (stereo not drawn) [QHL8]", "log10 of IC50": 0.55}
{"COMPOUND": "O=C(Cc1ccccc1S(=O)(=O)N1CCc2ccccc2C1)NO [QHL1]", "log10 of IC50": -0.06}
{"COMPOUND": "NCC[C@H]1CCCCN1C(=O)Cn1nc(-c2ccc(Cl)nc2)c2c1CCCC2 [QHL38]", "log10 of IC50": 1.04}
{"COMPOUND": "NCC[C@H]1CCCCN1C(=O)Cn1nc(-c2ccc(Cl)cc2)c2c1CCCC2 [QHL11]", "log10 of IC50": 0.59}
{"COMPOUND": "O=C(Cc1cc(N2CCCCCC2)nc(-c2ccc(Cl)cc2)n1)NO [QHL29]", "log10 of IC50": 0.47}
{"COMPOUND": "O=C(Cc1cc(N2CCCCC2)nc(-c2cccc(F)c2)n1)NO [QHL21]", "log10 of IC50": 0.75}
{"COMPOUND": "CC(C)C(CS(=O)(=O)N1CCC(c2ccc(F)cc2Cl)C1)C(=O)NO (stereo not drawn) [QHL6]", "log10 of IC50": 0.76}
{"COMPOUND": "CSc1[nH]c(-c2ccccc2)nc1S(=O)(=O)c1ccccc1 [QHL28]", "log10 of IC50": 1.19}
{"COMPOUND": "COc1ccc(S(=O)(=O)CCC(CCCc2ccccc2)C(=O)NO)cc1 (stereo not drawn) [QHL4]", "log10 of IC50": 0.30}
{"COMPOUND": "O=C(NO)C1(CS(=O)(=O)N2CCC(c3ccc(F)cc3Cl)C2)CCC1 (stereo not drawn) [QHL5]", "log10 of IC50": 0.29}
{"COMPOUND": "COc1ccc([C@@H]2c3nnnn3CCN2CCCN(C)c2ccccc2)c(C)c1 [QHL13]", "log10 of IC50": 1.21}
{"COMPOUND": "CC(C)[C@@H](CS(=O)(=O)N(C)Cc1sc2ccccc2c1Cl)C(=O)NO [QHL20]", "log10 of IC50": 0.76}
{"COMPOUND": "O=C(NO)C(CS(=O)(=O)N1CCC(c2ccc(F)cc2Cl)C1)C1CCOCC1 (stereo not drawn) [QHL2]", "log10 of IC50": -0.10}
{"COMPOUND": "CC(C)[C@@H](CS(=O)(=O)N(C)CC1CCc2ccccc2C1)C(=O)NO (stereo partly drawn) [QHL16]", "log10 of IC50": 0.58}
{"COMPOUND": "CC(C)c1cc(C(=O)N2CCc3n[nH]c(-c4cccs4)c3CC2)[nH]n1 [QHL19]", "log10 of IC50": 1.21}
{"COMPOUND": "Cc1cccc(Cl)c1CNc1ncnc2ncn(C)c12 [QHL12]", "log10 of IC50": 1.14}

* * *

Target: IRAP (Homo sapiens)
Construct: The screen was performed with the soluble truncated IRAP enzyme; made in house
Assay: Primary fluorescence IRAP assay (L-Leucine-7-amido-4-methylcoumarin cleavage)
Format: biochemical
Conditions: 8 µl end volume, 30 min; read-out: EC50 (best-fit)
Source text: The primary biochemical assay was developed to measure the enzymatic activity of IRAP. To ensure biochemically sound, optimal, robust, and affordable assay conditions for large-scale screening, several factors need to be considered. […] For both primary fluorescence and orthogonal absorbance assays, non-binding 1536-well assay plates were used, and 0.05% BSA was included in the assay buffer to minimize the issues associated with protein sticking to plastics. […]
pEC50: −log10 of the molar value.

{"COMPOUND": "O=S(=O)(Nc1cccc(-c2nnn[nH]2)c1)c1cc(Cl)c(Cl)cc1Cl [I, reference compound]", "pEC50": 4.39}

* * *

Entries and their log10 of IC50
biological target: IRAP (Homo sapiens, UniProt Q9UIQ6); construct: The screen was performed with the soluble truncated IRAP enzyme; made in house; assay: Deselection fluorescence IRAP assay with 10 µM zinc; type: biochemical; conditions: 10 µM ZnSO4 in assay buffer; read-out: Fluorescence + Zn pIC50 (converted)
ENDPOINT LABEL: log10 of IC50 (log10 of the value in nM)

{"COMPOUND": "COc1cc(C(=O)N2CCc3n[nH]c(-c4cccs4)c3CC2)on1", "TARGET SYSTEM": "IRAP (Homo sapiens, UniProt Q9UIQ6)", "VAL": 3.20}
{"COMPOUND": "CC(C)C(CS(=O)(=O)N(Cc1cc2ccccc2o1)C(C)C)C(=O)NO (centres unmarked)", "TARGET SYSTEM": "IRAP (Homo sapiens, UniProt Q9UIQ6)", "VAL": 2.59}
{"COMPOUND": "O=C(Cc1cc(N2CCCCC2)nc(-c2cccc(F)c2)n1)NO", "TARGET SYSTEM": "IRAP (Homo sapiens, UniProt Q9UIQ6)", "VAL": 3.45}
{"COMPOUND": "O=C(C1CCCCC1)N1CCC[C@@H]1c1cc(-c2cccnc2)on1", "TARGET SYSTEM": "IRAP (Homo sapiens, UniProt Q9UIQ6)", "VAL": 3.71}
{"COMPOUND": "COc1ccc([C@@H]2c3nnnn3CCN2CCCN(C)c2ccccc2)c(C)c1", "TARGET SYSTEM": "IRAP (Homo sapiens, UniProt Q9UIQ6)", "VAL": 3.30}
